Please provide measured minimal effective concentration for the entries that follow.
# Tested on: PC3 cells
# Assay overview: EB1 Comet (microtubule disruption) assay
# Assay type: cell-based, human
# Study conditions: Homo sapiens, PC-3, 1 h, 1 hour treatment, read-out: EB1 pLAC (converted)
Numbers only, in µM.

State the recorded minimal effective concentration for every item in the following list.
1. CCc1cc2ccc(C(C)(C#N)Cc3cc(Cl)ccc3OC)cc2[nH]c1=O (centres unmarked) [Compound 80]
2. CCc1cc2ccc(C(C)(C#N)Cc3cc(F)cc(C(F)(F)F)c3)cc2[nH]c1=O (centres unmarked) [Compound 127]

Output line:
[0.1, 1]

State the recorded minimal effective concentration for every item in the following list.
1. CCc1cc2ccc(C(C)(C#N)Cc3cccc(CN(C)C)c3)cc2[nH]c1=O (centres unmarked) [Compound 7]
2. Cc1cc2ccc(C(C)(C#N)C3CCc4ccccc43)cc2[nH]c1=O (centres unmarked) [Compound 392]
3. CCc1cc2ccc(C(C)(C#N)Cc3ccc(F)c(C)c3)cc2[nH]c1=O (centres unmarked) [Compound 79]
4. CCc1cc2ccc(C(C)(C#N)Cc3cccc(-c4ccc[nH]4)c3)cc2[nH]c1=O (centres unmarked) [Compound 176]
5. CCc1cc2ccc([C@@](C)(C#N)CN(C)Cc3ccc(C#N)cc3)cc2[nH]c1=O (single isomer, unassigned) [Compound 253]
6. CCc1cc2ccc(C(C)(C#N)Cc3cc(C)cc(C)c3)cc2[nH]c1=O (centres unmarked) [Compound 125]
7. Cc1cc2ccc([C@](C)(C#N)[C@H]3CCc4cc(Br)ccc43)cc2[nH]c1=O [Compound 239]

Output line:
3.16
0.316
1
1
0.1
0.1
1

State the recorded minimal effective concentration for every item in the following list.
1. CCc1cc2ccc(C(C)(C#N)Cc3cccc(-c4nc(C)no4)c3)cc2[nH]c1=O (centres unmarked) [Compound 11]
2. CCOc1cc(C#N)nc(CC(C)(C#N)c2ccc3cc(CC)c(=O)[nH]c3c2)n1 (centres unmarked) [Compound 315]
3. CCc1cc2ccc(C(C)(C#N)CCOc3ccc(C#N)cc3)cc2[nH]c1=O (centres unmarked) [Compound 161]
4. CCc1cc2ccc(C(C)(C#N)Cc3cccc(C#N)n3)cc2[nH]c1=O (centres unmarked) [Compound 329]
5. CCc1cc2ccc(C(C)(C#N)Cc3cccc(N4CCOCC4)c3)cc2[nH]c1=O (centres unmarked) [Compound 21]
6. Cc1cc2ccc(C(C)(C#N)C3CCc4c(C#N)cccc43)cc2[nH]c1=O (racemic) [Compound 393]
7. CCc1cc2ccc(C(C)(C#N)Cc3cc(C(F)(F)F)ccc3F)cc2[nH]c1=O (centres unmarked) [Compound 283]
8. CCc1cc2ccc(C(C)(C#N)CCOc3ccc4c(c3)OCO4)cc2[nH]c1=O (centres unmarked) [Compound 279]

Output line:
1: 1; 2: 1; 3: 0.316; 4: 0.316; 5: 1; 6: 10; 7: 1; 8: 1

State the recorded minimal effective concentration for every item in the following list.
1. CCc1cc2ccc(C(C)(C#N)Cc3cccc(N4CCC(N(C)C)C4)n3)cc2[nH]c1=O (centres unmarked) [Compound 209]
2. CCc1cc2ccc(C(C)(C#N)Cc3cc(Cl)cc(Cl)c3)cc2[nH]c1=O (centres unmarked) [Compound 141]
3. CCOc1cccc(CC(C)(C#N)c2ccc3cc(CC)c(=O)[nH]c3c2)c1 (centres unmarked) [Compound 285]
4. Cc1cc2ccc(C(C)(C#N)Cc3cccc(C=Cc4ccccc4)c3)cc2[nH]c1=O (centres unmarked) [Compound 179]
5. CCc1cc2ccc([C@](C)(C#N)Cc3nc(OC)cc(OC)n3)cc2[nH]c1=O (single isomer, unassigned) [Compound 52]

Output line:
[0.316, 0.1, 0.316, 1.78, 3.16]

---

# Test target: TANK-2 enzyme (Homo sapiens)
# Construct: made in house
# Assay overview: In vitro Scintillation Proximity Assay (SPA) for TANK-2 inhibitory activity
# Type: biochemical
# Study conditions: read-out: in vitro SPA assay TANK-2 pIC50 (converted)
Metric name: IC50 (nM)
Numbers only, in nM.

Molecule: CCc1cc2ccc(C(C)(C#N)Cc3ccc(Cl)c(C(F)(F)F)c3)cc2[nH]c1=O (stereo not drawn)
Numeric value: 398
//
Molecule: CCc1cc2ccc(C(C)(C#N)Cc3cccc(F)c3)cc2[nH]c1=O (stereo not drawn)
Numeric value: 25.1

Turning now to a further record.
The molecule identified as Cc1cc2ccc(C(C)(C#N)C3CCc4cc(Br)ccc43)cc2[nH]c1=O (stereo not drawn) registered its IC50 at 7940

---

Please provide measured IC50 for the entries that follow.
# Tested on: PC-3 cells
# Assay overview: Antiproliferative activity, Alamar Blue assay, PC-3 cells
# Assay type: cell-based, human
# Study conditions: Homo sapiens, PC-3, PC3 cells, Alamar Blue; read-out: PC3 antiproliferative activity pIC50 (converted)
One number for each entry, in µM.

Example entries begin here.
Molecule: CCc1cc2ccc(C(C)(C#N)Cc3nccn3CC)cc2[nH]c1=O (stereo not drawn) [Compound 337]
Test target: PC-3 cells
Measurement units: µM
IC50: 5.01
//
Molecule: CCc1cc2ccc(C(C)(C#N)Cc3cccc(C(=N)NO)c3)cc2[nH]c1=O (stereo not drawn) [Compound 186]
Test target: PC-3 cells
Measurement units: µM
IC50: 5.01

Turning now to a further record.
The molecule identified as CCc1cc2cc(OCCOC)c(C(C)(C#N)Cc3cccc(C#N)c3)cc2[nH]c1=O (stereo not drawn) [Compound 182] registered its IC50 at 5.01

---

# Test target: TANK-2 enzyme (Homo sapiens, UniProt Q9H2K2)
# Construct: made in house
# Sequence (Q9H2K2 whole entry): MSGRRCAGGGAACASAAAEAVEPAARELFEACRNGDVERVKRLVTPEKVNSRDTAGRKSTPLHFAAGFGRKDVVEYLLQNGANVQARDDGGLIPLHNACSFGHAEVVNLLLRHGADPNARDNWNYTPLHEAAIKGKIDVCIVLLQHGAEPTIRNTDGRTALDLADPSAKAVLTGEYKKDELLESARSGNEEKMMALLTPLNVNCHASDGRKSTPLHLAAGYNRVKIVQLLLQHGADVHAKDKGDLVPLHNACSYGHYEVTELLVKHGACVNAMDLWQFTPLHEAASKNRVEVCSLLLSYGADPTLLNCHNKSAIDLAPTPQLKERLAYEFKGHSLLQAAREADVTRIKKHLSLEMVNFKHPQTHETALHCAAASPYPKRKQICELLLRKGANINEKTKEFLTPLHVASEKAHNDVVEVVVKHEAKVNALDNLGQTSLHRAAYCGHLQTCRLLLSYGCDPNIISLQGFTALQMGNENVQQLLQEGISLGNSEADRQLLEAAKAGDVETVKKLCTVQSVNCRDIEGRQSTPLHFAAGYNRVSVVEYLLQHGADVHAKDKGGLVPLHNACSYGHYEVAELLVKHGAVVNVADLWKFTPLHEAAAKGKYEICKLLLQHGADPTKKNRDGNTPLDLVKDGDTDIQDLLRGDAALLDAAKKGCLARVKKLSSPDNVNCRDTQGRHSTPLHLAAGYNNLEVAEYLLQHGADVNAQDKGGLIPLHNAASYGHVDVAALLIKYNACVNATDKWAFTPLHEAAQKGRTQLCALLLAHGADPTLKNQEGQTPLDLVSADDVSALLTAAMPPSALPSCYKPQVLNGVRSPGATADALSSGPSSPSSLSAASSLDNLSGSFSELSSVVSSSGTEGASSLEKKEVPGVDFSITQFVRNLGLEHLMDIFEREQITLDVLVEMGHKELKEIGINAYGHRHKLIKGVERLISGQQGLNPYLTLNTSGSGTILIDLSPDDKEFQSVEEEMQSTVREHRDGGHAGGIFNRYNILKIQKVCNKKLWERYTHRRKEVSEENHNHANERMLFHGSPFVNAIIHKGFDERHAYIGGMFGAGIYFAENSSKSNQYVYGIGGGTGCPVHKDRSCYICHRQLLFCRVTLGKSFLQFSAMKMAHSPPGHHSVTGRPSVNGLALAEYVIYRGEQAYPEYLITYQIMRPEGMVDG
# Assay overview: In vitro Scintillation Proximity Assay (SPA) for TANK-2 inhibitory activity
# Type: biochemical
# Study conditions: read-out: in vitro SPA assay TANK-2 pIC50 (converted)
Strictly below 100 nM in IC50: Condition met. Otherwise: Condition not met.

Here's what some known entries look like.
Molecule: CCc1cc2ccc(C(C)(C#N)CCOc3cccc4ccccc34)cc2[nH]c1=O (stereo not drawn)
Label value: Condition not met

Molecule: CCc1cc2ccc(C(C)(C#N)Cc3cccc(COC)n3)cc2[nH]c1=O (stereo not drawn)
Label value: Condition not met

Now, please, on to the next molecule.
Input line: Does the reported IC50 of the following molecule sit strictly below 100 nM? Cc1cc2ccc(C(C)(C#N)Cc3cccc(Oc4ccccn4)c3)cc2[nH]c1=O (stereo not drawn)
Output line: Condition not met

---

# Test system: PC3 cells
# Assay overview: EB1 Comet (microtubule disruption) assay
# Format: cell-based, human
# Study conditions: Homo sapiens, PC-3, 1 h, 1 hour treatment, read-out: EB1 pLAC (converted)
# Description: The Eb1 Comet assay relies on the detection of the Eb1 protein at the plus end of polymerizing microtubules (Mimori-Kiyosue, 2000) using indirect immunofluorescence. […] Briefly, human prostate cancer PC3 cells obtained from the American Type Culture Collection were grown in 96-well plates (Greiner, cat. no. 655090) in HAM's F12 medium as recommended by the provider (ATCC). […] Compound dependent microtubule disruption was visually determined by the disappearance in Eb1 foci. […]
Please provide measured minimal effective concentration for the entries that follow.

Example entries begin here.
Compound: CCc1cc2ccc(C(C)(C#N)Cc3cccc(OC)c3)cc2[nH]c1=O (stereo not drawn) [Compound 113]
Result: > 10 µM
--
Compound: CCc1cc2ccc(C(C)(C#N)Cc3cccc(-c4ccccc4)c3)cc2[nH]c1=O (stereo not drawn) [Compound 18]
Result: 1 µM

State the recorded minimal effective concentration for every item in the following list.
1. CCc1cc2ccc(C(C)(C#N)Cc3c(Cl)cccc3Br)cc2[nH]c1=O (stereo not drawn) [Compound 136]
2. CCc1cc2ccc(C(C)(C#N)Cc3ccc(OC(F)(F)F)cc3)cc2[nH]c1=O (stereo not drawn) [Compound 114]
3. CCc1cc2ccc(C(C)(C#N)Cc3cccc(OCCOC)n3)cc2[nH]c1=O (stereo not drawn) [Compound 219]
4. CCc1cc2ccc(C(C)(C#N)Cc3cccc(CO)c3)cc2[nH]c1=O (stereo not drawn) [Compound 9]
5. CCc1cc2ccc(C(C)(C#N)Cc3cccc(N)c3)cc2[nH]c1=O (stereo not drawn) [Compound 15]
6. CCc1cc2ccc(C(C)(C#N)Cc3ccc(Cl)nc3OC)cc2[nH]c1=O (stereo not drawn) [Compound 225]
7. CCc1cc2ccc(C(C)(C#N)Cc3nc(N(C)C)cc(N(C)C)n3)cc2[nH]c1=O (stereo not drawn) [Compound 205]

Output line:
["1 µM", "1 µM", "1 µM", "1 µM", "3.16 µM", "1 µM", "1 µM"]

State the recorded minimal effective concentration for every item in the following list.
1. CCc1cc2ccc(C(C)(C#N)Cc3cccc(C)c3)cc2[nH]c1=O (stereo not drawn) [Compound 107]
2. Cc1cc2ccc(C(C)(C#N)Cc3ccc(C(F)(F)F)o3)cc2[nH]c1=O (stereo not drawn) [Compound 73]
3. CCc1cc2ccc(C(C)(C#N)Cc3cccc(Cl)c3Cl)cc2[nH]c1=O (stereo not drawn) [Compound 121]

Output line:
1 µM
1 µM
0.316 µM

State the recorded minimal effective concentration for every item in the following list.
1. CCc1cc2ccc(C(C)(C#N)Cc3cc(C#N)cc4c3OCC4)cc2[nH]c1=O (stereo not drawn) [Compound 236]
2. Cc1cc2ccc(C(C)(C#N)Cc3cccc(Oc4ccccn4)c3)cc2[nH]c1=O (stereo not drawn) [Compound 304]
3. Cc1cc2ccc([C@](C)(C#N)[C@@H]3CCc4cc(Br)ccc43)cc2[nH]c1=O [Compound 242]
4. CCc1cc2ccc(C(C)(C#N)CCOc3cccc(C)c3)cc2[nH]c1=O (stereo not drawn) [Compound 143]

Output line:
1. 0.316 µM
2. 0.1 µM
3. 0.1 µM
4. 1 µM

State the recorded minimal effective concentration for every item in the following list.
1. Cc1cc2ccc([C@@](C)(C#N)[C@@H]3CCc4cc(Br)ccc43)cc2[nH]c1=O [Compound 240]
2. CCc1cc2ccc(C(C)(C#N)Cc3c(C)cccc3C)cc2[nH]c1=O (stereo not drawn) [Compound 84]

Output line:
1. > 10 µM
2. 1 µM

Measured values drawn from patent US8778966B2 for this set.
